Each entry below lists one item and its recorded IC50 value.
systemName: human MRGPRD (Homo sapiens, UniProt Q8TDS7)
Sequence (Q8TDS7 whole entry): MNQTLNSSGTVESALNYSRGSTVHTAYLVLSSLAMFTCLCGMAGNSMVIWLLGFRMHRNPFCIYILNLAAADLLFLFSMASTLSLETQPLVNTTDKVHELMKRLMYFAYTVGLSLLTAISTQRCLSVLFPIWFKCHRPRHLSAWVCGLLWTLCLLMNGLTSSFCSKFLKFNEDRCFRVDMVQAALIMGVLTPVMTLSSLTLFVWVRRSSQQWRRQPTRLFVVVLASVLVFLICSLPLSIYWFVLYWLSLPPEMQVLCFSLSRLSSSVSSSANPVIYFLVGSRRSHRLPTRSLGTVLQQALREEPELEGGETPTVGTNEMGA
method: MRGPRD antagonist activity, IP-One HTRF assay in CHO cells stably expressing human MRGPRD (versus 100 μM β-Alanine agonist)

Requested read-out: IC50. Entry: CC(=O)c1cccc(-c2cc(-n3nnc(C(=O)Nc4ccncc4)c3C3CC3)ccc2F)c1
500 to 1000 nM

Now consider CO[C@H]1CC[C@H](NC(=O)c2nnn(-c3ccc(-c4ccccc4)cc3)c2C2CC2)CC1 and answer again.
1000 to 3000 nM

Further cases:
Requested read-out: IC50. Entry: O=C(Nc1ccncc1)c1nnn(-c2ccc(-c3cccc(C(F)F)c3)cc2)c1C1CC1
500 to 1000 nM

Now consider Cc1cc(NC(=O)c2nnn(-c3ccc(-c4ccccc4)cc3)c2C(C)C)ccn1 and answer again.
1000 to 3000 nM

Now consider O=C(O)c1cccc(-c2ccc(-n3nnc(C(=O)Nc4ccncc4)c3C3CC3)cc2)c1 and answer again.
> 3000 nM

Now consider O=C(Nc1ccncc1)c1nnn(-c2cccc(-c3cnn(C4CC4)c3)c2)c1C1CC1 and answer again.
1000 to 3000 nM

Now consider O=C(NCC1CCCO1)c1nnn(-c2ccc(-c3ccccc3)cc2)c1C1CC1 (centres unmarked) and answer again.
> 3000 nM

Now consider CCn1cc(-c2ccc(-n3nnc(C(=O)Nc4ccncc4)c3C3CC3)cc2)c(C)n1 and answer again.
1000 to 3000 nM

----------
Each entry below lists one item and its recorded IC50 value.
systemName: human MRGPRD (Homo sapiens)
method: MRGPRD antagonist activity, IP-One HTRF assay in CHO cells stably expressing human MRGPRD (versus 100 μM β-Alanine agonist)

Requested read-out: IC50. Entry: Cc1ccc(CNC(=O)c2nnn(-c3ccc(-c4cnn(Cc5ccccc5)c4)cc3)c2C2CC2)cn1
100 to 500 nM

Now consider Cc1ccc(-c2ccc(-n3nnc(C(=O)Nc4ccnc(C)c4)c3C3CC3)cc2)cn1 and answer again.
100 to 500 nM

Now consider Cn1ncc2c1CCCC2NC(=O)c1nnn(-c2ccc(-c3ccccc3)cc2)c1C1CC1 (stereo not shown) and answer again.
1000 to 3000 nM

Further cases:
Requested read-out: IC50. Entry: NC(=O)c1ccc(-c2ccc(-n3nnc(C(=O)NC4(c5cccnc5)CC4)c3C3CC3)cc2)cn1
1000 to 3000 nM

----------
Each entry below lists one item and its recorded IC50 value.
systemName: human MRGPRD (Homo sapiens)
method: MRGPRD antagonist activity, IP-One HTRF assay in CHO cells stably expressing human MRGPRD (versus 100 μM β-Alanine agonist)

Requested read-out: IC50. Entry: Cn1cc(-c2cccc(-n3nnc(C(=O)Nc4ccncc4)c3C3CC3)c2)cn1 [Compound 7-326]
1000 to 3000 nM

Now consider Cc1cc(C#N)ccc1-c1ccc(-n2nnc(C(=O)Nc3ccncc3)c2C2CC2)cc1 [Compound 7-15] and answer again.
< 100 nM

Now consider CCn1cc(CNC(=O)c2nnn(-c3ccc(-c4c(C)nn(C)c4C)cc3)c2C(C)C)cn1 [Compound 17-11] and answer again.
< 100 nM

For the next question, use this compound.
Requested read-out: IC50. Entry: COCn1cc(-c2cccc(-n3nnc(C(=O)Nc4ccncc4)c3C3CC3)c2)cn1 [Compound 7-301]
1000 to 3000 nM
